Target: 5-HT2A receptor (Homo sapiens (Human), UniProt P28223)
Assay type: cell-based
Conditions: Ca^2+ flux, HEK293
Kindly state 5-HT2A % Act @ Max Dose for each of the entries shown.
Report only the number, with the unit % understood.

Tell me the measured 5-HT2A % Act @ Max Dose of C=CCN1C[C@@H](C(=O)N[C@H](C)CC)C=C2c3cccc4[nH]cc(c34)C[C@H]21 , please. 87.45

# input compound: C=CCN1C[C@H](C(=O)N[C@H](C)CC)C=C2c3cccc4[nH]cc(c34)C[C@H]21 ; wanted: its 5-HT2A % Act @ Max Dose 99.25

Please report the recorded 5-HT2A % Act @ Max Dose for CC[C@@H](C)NC(=O)[C@H]1C=C2c3cccc4[nH]cc(c34)C[C@H]2N(CC)C1 . 89.59

Fill blank: measured 5-HT2A % Act @ Max Dose of the compound CCN(CC)C(=O)[C@@H]1C=C2c3cccc4[nH]cc(c34)C[C@H]2N(CCc2ccccc2OC)C1 is ____. 63.46

Reported 5-HT2A % Act @ Max Dose for CCN(CC)C(=O)[C@@H]1C=C2c3cccc4[nH]cc(c34)C[C@H]2N(Cc2ccccc2O)C1 : what is it? 62.05

Item under review: CCN(CC)C(=O)[C@@H]1C=C2c3cccc4[nH]cc(c34)C[C@H]2N(CC2CC2)C1 . Reported 5-HT2A % Act @ Max Dose? 92.60

Given CCN(CC)C(=O)[C@@H]1C=C2c3cccc4[nH]cc(c34)C[C@H]2N(CCC(F)(F)F)C1 , state its recorded 5-HT2A % Act @ Max Dose. 78.69

====

Tested on: C57BL/6 mice
Assay: Mouse head twitch response (HTR) assay
Type: in vivo
Conditions: mice, SC, 20 min observation
Observable: head twitch response (HTR), in words

Smiles entry: CCN(CC)C(=O)[C@@H]1C=C2c3cccc4[nH]cc(c34)C[C@H]2N(Cc2ccccc2OC)C1
Measured target: C57BL/6 mice
Observable: head twitch response (HTR), in words
Recorded measurement: low efficacy
//
Smiles entry: CCN(CC)C(=O)[C@@H]1C=C2c3cccc4[nH]cc(c34)C[C@H]2N(CCc2ccccc2OC)C1
Measured target: C57BL/6 mice
Observable: head twitch response (HTR), in words
Recorded measurement: low efficacy

====

Assay: Metabolic stability in human liver microsomes (HLM)
Type: in vitro ADME
Conditions: both sexes, human, pooled human liver microsomes, pH 7.4, NADPH
From the text: HLM Stability. Pooled HLM from adult male and female donors (Corning 452117) were used.
Would you kindly list half-life at 1 μM for each of these compounds?
Answer with a number only, understood to be in min.

Would you kindly share the measured half-life at 1 μM for CCCN1C[C@H](C(=O)N2[C@@H](C)C[C@@H]2C)C=C2c3cccc4[nH]cc(c34)C[C@H]21 ? 10.6

GET /values?readout=half-life at 1 μM&item= CCCN1C[C@@H](C(=O)N[C@H](C)CC)C=C2c3cccc4[nH]cc(c34)C[C@H]21 2.2

Which half-life at 1 μM value belongs to CCCN1C[C@H](C(=O)N[C@H](C)CC)C=C2c3cccc4[nH]cc(c34)C[C@H]21 ? 4.2

Tell me the measured half-life at 1 μM of C=CCN1C[C@@H](C(=O)N[C@H](C)CC)C=C2c3cccc4[nH]cc(c34)C[C@H]21 , please. 3.4

I am curious: what half-life at 1 μM value has been reported for CCN(CC)C(=O)[C@@H]1C=C2c3cccc4[nH]cc(c34)C[C@H]2N(CCc2cccc(OC)c2)C1 ? 2.1

Field request: half-life at 1 μM | item: CCC[C@@H](C)NC(=O)[C@H]1C=C2c3cccc4[nH]cc(c34)C[C@H]2N(C)C1 [Int17a] 4.58

Return reported half-life at 1 μM; argument: CC[C@@H](C)NC(=O)[C@@H]1C=C2c3cccc4[nH]cc(c34)C[C@H]2N(C)C1 64.9

Requested field: half-life at 1 μM. Item: CCCN1C[C@H](C(=O)N(CC)CC)C=C2c3cccc4[nH]cc(c34)C[C@H]21 15.1

Using the record for CC[C@@H](C)NC(=O)[C@H]1C=C2c3cccc4[nH]cc(c34)C[C@H]2N(C)C1 , report its half-life at 1 μM. 11.1

Which measured half-life at 1 μM value corresponds to CCC(CC)NC(=O)[C@@H]1C=C2c3cccc4[nH]cc(c34)C[C@H]2N(C)C1 ? 17.6

I have this compound here, C[C@H]1C[C@H](C)N1C(=O)[C@@H]1C=C2c3cccc4[nH]cc(c34)C[C@H]2N(C)C1 , and I need its recorded half-life at 1 μM. 25.7

Look up half-life at 1 μM for this compound: CCN(CC)C(=O)[C@@H]1C=C2c3cccc4[nH]cc(c34)C[C@H]2N(CCC(F)(F)F)C1 13.5

Could you share which half-life at 1 μM value was measured for CCC[C@@H](C)NC(=O)[C@@H]1C=C2c3cccc4[nH]cc(c34)C[C@H]2N(C)C1 ? 15.9

Using the record for CCN(CC)C(=O)[C@@H]1C=C2c3cccc4[nH]cc(c34)C[C@H]2N(C)C1 [LSD, lysergic acid diethylamide, reference compound] , report its half-life at 1 μM. 71.6

I'd like to know its half-life at 1 μM. The compound in question is CCN(CC)C(=O)[C@@H]1C=C2c3cccc4[nH]cc(c34)C[C@H]2N(CC2CC2)C1 21.1

I would be grateful if you could share the reported half-life at 1 μM for CCN(CC)C(=O)[C@@H]1C=C2c3cccc4[nH]cc(c34)C[C@H]2N(Cc2ccccc2OC)C1 . 7.3

Which half-life at 1 μM value is on record for CCN(CC)C(=O)[C@@H]1C=C2c3cccc4[nH]cc(c34)C[C@H]2N(Cc2cccc(OC)c2)C1 ? 13.6

Which half-life at 1 μM is reported for this compound? CCC[C@@H](C)NC(=O)[C@@H]1C=C2c3cccc4[nH]cc(c34)C[C@H]2N(CCC)C1 1.65

I have this compound here, CCCN1C[C@H](C(=O)NC(CC)CC)C=C2c3cccc4[nH]cc(c34)C[C@H]21 , and I need its recorded half-life at 1 μM. 1.61

Sample CC[C@@H](C)NC(=O)[C@H]1C=C2c3cccc4[nH]cc(c34)C[C@H]2N(CC)C1 — what was its half-life at 1 μM? 5.5

Returns the measured half-life at 1 μM for the input compound. Input: CCN(CC)C(=O)[C@@H]1C=C2c3cccc4[nH]cc(c34)C[C@H]2N(CCc2ccccn2)C1 7.2

What does the data say about its half-life at 1 μM? Entry: CCN(CC)C(=O)[C@@H]1C=C2c3cccc4[nH]cc(c34)C[C@H]2N(CCc2ccccc2OC)C1 2.37

Name the reported half-life at 1 μM value associated with the compound CCN(CC)C(=O)[C@@H]1C=C2c3cccc4[nH]cc(c34)C[C@H]2N(Cc2ccccn2)C1 23.8

What half-life at 1 μM value was documented for this compound, C=CCN1C[C@H](C(=O)N[C@H](C)CC)C=C2c3cccc4[nH]cc(c34)C[C@H]21 ? 7.9

GET /values?readout=half-life at 1 μM&item= CCN(CC)C(=O)[C@H]1C=C2c3cccc4[nH]cc(c34)C[C@H]2N(CCCF)C1 17

Query (compound): CCN(CC)C(=O)[C@@H]1C=C2c3cccc4[nH]cc(c34)C[C@H]2N(Cc2ccccc2O)C1 ; field requested: half-life at 1 μM 4.9

Bench note: what half-life at 1 μM did CCC(CC)NC(=O)[C@H]1C=C2c3cccc4[nH]cc(c34)C[C@H]2N(C)C1 [Int14a] show? 3.35

Dear colleague, I am looking for the recorded half-life at 1 μM of the following compound: CCN(CC)C(=O)[C@@H]1C=C2c3cccc4[nH]cc(c34)C[C@H]2N(CCc2ccc(OC)cc2)C1 3.8

What half-life at 1 μM value was documented for this compound, CCN(CC)C(=O)[C@@H]1C=C2c3cccc4[nH]cc(c34)C[C@H]2N(CCCF)C1 ? 19.1

Which half-life at 1 μM value belongs to CCN(CC)C(=O)[C@@H]1C=C2c3cccc4[nH]cc(c34)C[C@H]2N(Cc2ccc(OC)cc2)C1 ? 16.8
